Recorded log10 of kon values for a group of binders are listed next.
ASSAY SYSTEM: T1, murine PRLR (Biacore antigen) (murine, UniProt Q08501 20-229, limits assumed)
T1 construct: also called muPRLR
T1 sequence (looked up): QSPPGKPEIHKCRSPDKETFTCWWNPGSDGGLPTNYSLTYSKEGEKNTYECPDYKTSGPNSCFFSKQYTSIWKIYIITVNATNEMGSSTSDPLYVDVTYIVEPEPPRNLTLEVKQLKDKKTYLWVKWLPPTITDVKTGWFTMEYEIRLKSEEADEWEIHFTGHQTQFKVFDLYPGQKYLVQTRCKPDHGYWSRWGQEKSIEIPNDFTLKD
METHOD DESCRIPTION: SPR Biacore
Please note: log10 values; quantity kon; unit M⁻¹ s⁻¹.

As a guide, the following entries are already answered.
1) LFA102 (antibody, human IgG1, kappa, V domains shown, humanized IgG1 kappa comparator (WO 2008022295)) VH: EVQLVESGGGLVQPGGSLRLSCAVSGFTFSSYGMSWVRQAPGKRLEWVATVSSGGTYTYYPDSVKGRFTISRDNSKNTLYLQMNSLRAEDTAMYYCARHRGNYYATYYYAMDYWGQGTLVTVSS VL: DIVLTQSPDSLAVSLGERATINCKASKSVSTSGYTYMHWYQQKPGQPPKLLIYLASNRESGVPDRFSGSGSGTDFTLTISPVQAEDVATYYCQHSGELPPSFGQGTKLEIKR    5.79
2) chAb8 (antibody, human IgG1, kappa, V domains shown, chimeric, murine variable and human G1/kappa constant regions) VH: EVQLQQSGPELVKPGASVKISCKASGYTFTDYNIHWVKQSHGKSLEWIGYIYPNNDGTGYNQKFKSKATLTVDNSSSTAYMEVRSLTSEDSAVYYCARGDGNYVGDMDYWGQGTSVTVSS VL: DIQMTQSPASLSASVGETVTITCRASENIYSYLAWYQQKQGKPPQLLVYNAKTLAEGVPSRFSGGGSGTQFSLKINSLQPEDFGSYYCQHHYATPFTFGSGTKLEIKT    5.27
3) chAb5 (antibody, human IgG1, kappa, V domains shown, chimeric, murine variable and human G1/kappa constant regions) VH: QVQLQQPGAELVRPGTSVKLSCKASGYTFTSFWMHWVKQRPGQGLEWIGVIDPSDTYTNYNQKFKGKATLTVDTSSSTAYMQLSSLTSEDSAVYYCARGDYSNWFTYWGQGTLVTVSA VL: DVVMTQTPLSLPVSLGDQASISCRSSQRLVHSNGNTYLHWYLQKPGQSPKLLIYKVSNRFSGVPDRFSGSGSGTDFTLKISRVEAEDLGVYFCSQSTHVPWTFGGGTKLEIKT    5.30

Would you kindly share the measured log10 of kon for Ab6 (antibody, V domains shown, murine monoclonal, isotype G1; also called murine Ab6) VH: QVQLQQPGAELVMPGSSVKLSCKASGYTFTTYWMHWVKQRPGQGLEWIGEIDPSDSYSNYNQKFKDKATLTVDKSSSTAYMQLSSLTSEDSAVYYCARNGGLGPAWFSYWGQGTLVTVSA VL: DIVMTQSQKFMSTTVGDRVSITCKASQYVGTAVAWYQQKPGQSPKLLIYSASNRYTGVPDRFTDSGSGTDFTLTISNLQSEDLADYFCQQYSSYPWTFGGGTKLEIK ?
5.79

Would you kindly share the measured log10 of kon for Ab54 (antibody, human IgG1, kappa, V domains shown, humanized from Ab7 (back mutations on Ab39); G1; also called Ab4 HC.1a.3 and Ab4 LC.1a) VH: EVQLVQSGAEVKKPGSSVKVSCKASGYTFTSYWIHWVRQAPGQGLEWIGEIDPSDSYTNYNQKFKGRATLTVDKSSSTAYMELSSLRSEDTAVYYCGRSFFTNWFAYWGQGTLVTVSS VL: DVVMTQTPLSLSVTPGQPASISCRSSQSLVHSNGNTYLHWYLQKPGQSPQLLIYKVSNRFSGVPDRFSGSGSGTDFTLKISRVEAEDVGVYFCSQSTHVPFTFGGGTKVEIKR ?
4.61

Data provenance: patent US20170022281A1
